Where do these numbers come from? They come from patent US10138255B2.

What pEC50 was measured for each of the following?
Tested on: HIV-1 (H9IIIB strain)
Assay comment: Cell-Based HIV Infection Assay Using a Reporter (MT4-GFP cells)
Measurement setup: Human immunodeficiency virus 1, inflection point (IP) of viral growth inhibition; MT4-GFP cells infected with HIV-1 H9IIIB; 50% normal human serum; mean of at least two independent experiments; read-out: Cell Based IP (50% NHS)
Answers are plain numbers, as −log10 of the molar value.

Entry `CO[C@H]1CC[C@H]([C@H](c2ccc(F)cc2)[C@H](N)C(=O)Nc2cncc(F)c2CC[C@H]2CN[C@@H]3CCCS(=O)(=O)N2C3)CC1` , pEC50 reported as 8.12

Entry `COC(=O)N[C@H](C(=O)Nc1cccc(F)c1CC[C@H]1CN[C@@H]2CCCS(=O)(=O)N1C2)[C@@H](c1ccc(Cl)cc1)[C@H]1CCO[C@@H](CC(F)(F)F)C1` , pEC50 reported as 8.06

Entry `CCOC[C@H]1CC[C@H]([C@H](c2ccc(Cl)cc2)[C@H](N)C(=O)Nc2cncc(F)c2CC[C@H]2CN[C@@H]3CCCS(=O)(=O)N2C3)CC1` , pEC50 reported as 8.47

Hey, can you go through the list below and give me pEC50 for every item?
1. COC(=O)N[C@H](C(=O)Nc1cccc(F)c1CCC1CNC2CCCS(=O)(=O)N1C2)[C@@H](c1ccc(F)cc1)c1cccc(C(F)(F)F)c1 (stereo partly drawn)
2. CCO[C@H]1CC[C@H]([C@H](c2ccc(F)cc2)[C@H](NC(=O)OC)C(=O)Nc2cccc(F)c2CC[C@H]2CN[C@@H]3CCCS(=O)(=O)N2C3)CC1
3. CC(C)Oc1ncc([C@H](c2ccc(F)cc2)[C@H](N)C(=O)Nc2cccc(F)c2CC[C@H]2CN[C@@H]3CCCS(=O)(=O)N2C3)cn1

Result block:
[7.85, 8.19, 8.03]
